// provenance: ChEMBL document CHEMBL1208784

target: Tyrosinase (Mus musculus); assay: Inhibition of tyrosinase in alpha-MSH-induced mouse B16 cells
Sequence (P11344 whole entry): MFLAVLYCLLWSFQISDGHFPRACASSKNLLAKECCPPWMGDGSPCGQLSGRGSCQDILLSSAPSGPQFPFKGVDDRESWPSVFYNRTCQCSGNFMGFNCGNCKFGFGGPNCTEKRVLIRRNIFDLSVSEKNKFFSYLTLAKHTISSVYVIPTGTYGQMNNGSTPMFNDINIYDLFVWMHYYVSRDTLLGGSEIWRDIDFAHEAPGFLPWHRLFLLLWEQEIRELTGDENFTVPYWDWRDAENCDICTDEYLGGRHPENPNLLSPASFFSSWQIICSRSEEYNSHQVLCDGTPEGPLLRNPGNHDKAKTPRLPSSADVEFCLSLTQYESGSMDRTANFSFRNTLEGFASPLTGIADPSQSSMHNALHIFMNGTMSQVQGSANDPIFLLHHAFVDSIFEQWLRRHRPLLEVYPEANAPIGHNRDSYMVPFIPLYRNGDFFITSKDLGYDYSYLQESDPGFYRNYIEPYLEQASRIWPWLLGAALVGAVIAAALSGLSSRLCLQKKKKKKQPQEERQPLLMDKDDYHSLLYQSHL
REPORTED_PROPERTY: IC50

[
  {
    "RECORD_SMILES": "NC(=S)Nc1ccccc1",
    "TARGET_DESC": "Tyrosinase (Mus musculus)",
    "VALUE_REPORTED": "1800 nM"
  }
]

====

test system: B16; test: Antimelanogenic activity in mouse B16 cells assessed as inhibition of alpha-MSH-induced melanogenesis at 10 uM; type: functional
REPORTED_PROPERTY: inhibition at 10 µM (%)

[
  {
    "RECORD_SMILES": "Cc1ccc2c(c1)CN(CCC(C)C)C(=O)N2",
    "VALUE_PREFIX": "=",
    "VALUE_REPORTED": 15
  },
  {
    "RECORD_SMILES": "CCCCCCN1Cc2cc(C)ccc2NC1=S",
    "VALUE_PREFIX": ">",
    "VALUE_REPORTED": 100
  },
  {
    "RECORD_SMILES": "Cc1ccc2c(c1)CN(CC1CCCCC1)C(=O)N2",
    "VALUE_PREFIX": "=",
    "VALUE_REPORTED": 18
  },
  {
    "RECORD_SMILES": "S=C1Nc2ccc(Cl)cc2CN1CC1CCCCC1",
    "VALUE_PREFIX": ">",
    "VALUE_REPORTED": 100
  }
]
